- Test system: OCI-AML2
- Procedure details: cell viability relative to vehicle control; higher = less cytotoxic;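 further: after 48 h exposure read by CellTiter-Glo luminescence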
- Study conditions: 10 µM; SRSF2 genotype: wt/wt
Counter-ions that a name gives are not always drawn.
Note to self: cell viability under 90% means true, ties and anything higher get false.

Molecule	Category label
COc1cc([C@H]2OC[C@H]3[C@@H]2CO[C@@H]3c2ccc(O[C@@H]3O[C@H](CO)[C@@H](O)[C@H](O)[C@H]3O)c(OC)c2)ccc1O[C@@H]1O[C@H](CO)[C@@H](O)[C@H](O)[C@H]1O [Pinoresinol diglucoside]	false

Decide: cell viability of `C[C@@]1(c2cc(-c3cncnc3)c(F)cc2F)CCSC(N)=N1` strictly below 90%?
false

Decide: cell viability of `O=S(=O)(NCCSSCCNS(=O)(=O)c1cc(Cl)ccc1Cl)c1cc(Cl)ccc1Cl` strictly below 90%?
true

Decide: cell viability of `Cc1ccc(-n2[nH]c(C)c(N=Nc3cccc(-c4cccc(C(=O)O)c4)c3O)c2=O)cc1C` strictly below 90%?
true

Decide: cell viability of CC(C)NCC(O)COc1cccc2ccccc12 (stereo not drawn) [Propranolol HCl] strictly below 90%?
false

Decide: cell viability of O=C(O)Cc1ccccc1Nc1c(Cl)cccc1Cl [Diclofenac Potassium] strictly below 90%?
false

---

- Tested on: MOLM14
- Procedure details: cell viability relative to vehicle control; higher = less cytotoxic
- Study conditions: 10 µM; SRSF2 genotype: SRSF2 P95H/wt
Measured property: cell viability (%)
State just the number; it will be interpreted in %.

Known cell viability results, listed for orientation:
Molecule	Measured property	Number
Cn1c([N+](=O)[O-])cnc1COC(N)=O	cell viability	96
C[C@@H]1CC[C@@]2(OC1)O[C@H]1C[C@H]3[C@@H]4CC=C5C[C@@H](O)C[C@@H](O)[C@]5(C)[C@H]4CC[C@]3(C)[C@H]1[C@@H]2C	cell viability	103

Next:
Record request: cell viability value, item `O=C(CCNC(=O)c1ccc(OC(F)(F)F)cc1)N[C@@H]1CCCc2ccccc21`
93.7

---

- Test system: MOLM14
- Procedure details: cell viability relative to vehicle control; higher = less cytotoxic
- Study conditions: 10 µM; SRSF2 genotype: SRSF2 wt/wt
Counter-ions that a name gives are not always drawn.
Note to self: cell viability under 60% means YES, ties and anything higher get NO.

Decide: cell viability of `CC(C)[C@H](C(=O)Nc1ccc(C(=O)NO)cc1)c1ccccc1` strictly below 60%?
YES

Decide: cell viability of COC(=O)C1=C(C#N)NC(C)=C(C(=O)OC(C)C)C1c1cccc([N+](=O)[O-])c1 (stereo not given) strictly below 60%?
NO

Decide: cell viability of N=C(N)N [Guanidine (Aminoformamidine) HCl] strictly below 60%?
NO

Decide: cell viability of `COc1ccc(-c2cnc3c(-c4cccc5ncccc45)cnn3c2)cc1` strictly below 60%?
NO

Decide: cell viability of `CC(=N)NCc1cccc(CN)c1` strictly below 60%?
NO

Decide: cell viability of `O=C(NCCS(=O)(=O)c1ccc(C(F)(F)F)cn1)c1ccc(Cl)cc1` strictly below 60%?
NO

Decide: cell viability of `Cc1ccc2nc(NCCN)c3ncc(C)n3c2c1` strictly below 60%?
YES

Decide: cell viability of CCCNC(=O)C1OC1C(=O)NC(C(=O)N1CCCC1C(=O)OC)C(C)CC (stereo not given) strictly below 60%?
YES

Decide: cell viability of c1ccc(-c2ccc(C(c3ccccc3)n3ccnc3)cc2)cc1 (stereo not given) strictly below 60%?
NO

---

- Test system: K562
- Procedure details: cell viability relative to vehicle control; higher = less cytotoxic
- Study conditions: 10 µM; SRSF2 genotype: SRSF2 wt/wt
Where a name gives a salt, the structure may show the parent alone.
Note to self: cell viability under 90% means t, ties and anything higher get f.

Solved entries (count: 3):
Compound	System tested	Category label
O=C(O)CCNc1cc(N2CCc3ccccc3CC2)nc(-c2ccccn2)n1	K562	f
CC1CNC(=O)NC1=O (stereo not drawn) [Dihydrothymine]	K562	f
c1ccc(-c2ccc(C(c3ccccc3)n3ccnc3)cc2)cc1 (stereo not drawn)	K562	t

Decide: cell viability of `COc1cc2oc(=O)ccc2c(OC)c1C[C@@H](O)C(C)(C)O` strictly below 90%?
f

Decide: cell viability of `C/C(=N\NC(=O)c1cccc(S(=O)(=O)N2CCOCC2)c1)c1cc(Cl)ccc1O` strictly below 90%?
t

Decide: cell viability of `Cc1cc(-c2cc(C)c(NCCCS(=O)(=O)O)c(C)c2)cc(C)c1N` strictly below 90%?
f

Decide: cell viability of O=Cc1ccc(O)c(O)c1 [3,4-Dihydroxybenzaldehyde] strictly below 90%?
f

Decide: cell viability of Nc1ncccc1-c1nc2ccc(-c3ccccc3)nc2n1-c1ccc(C2(N)CCC2)cc1 [Miransertib (ARQ 092)HCl] strictly below 90%?
t

---

Measured cell viability by item
- Test system: OCI-AML2
- Procedure details: cell viability relative to vehicle control; higher = less cytotoxic
- Study conditions: 10 µM; SRSF2 genotype: wt/wt
Where a name gives a salt, the structure may show the parent alone.

Known cell viability results, listed for orientation:
Molecule	cell viability
FC(F)c1nc2ccccc2n1-c1nc(N2CCOCC2)nc(N2CCOCC2)n1	27.2%
CN1CC2c3ccccc3Oc3ccc(Cl)cc3C2C1 (configuration not stated) [Asenapine maleate]	73.2%
Oc1ccc(Nc2nc(-c3ccc(Cl)cc3)cs2)cc1	42.1%
CC1(C)O[C@H]2CC(=O)OC[C@]23[C@H]2CC[C@@]4(C)[C@H](c5ccoc5)OC(=O)[C@H]5O[C@]54[C@]2(C)C(=O)C[C@@H]13	102%
CCn1c(=O)c(-c2ccc(Cl)cc2Cl)cc2cnc(Nc3ccc(N4CCNCC4)c(F)c3)nc21	1.2%
COc1cccc2c1C(=O)c1c(O)c3c(c(O)c1C2=O)CC(O)(C(=O)CO)CC3OC1CC(N)C(O)C(C)O1 (configuration not stated) [Doxorubicin (Adriamycin) HCl]	12.5%
NS(=O)(=O)NCCNc1nonc1/C(=N/O)Nc1ccc(F)c(Br)c1	109%
NC1(C(=O)N[C@@H](CCO)c2ccc(Cl)cc2)CCN(c2ncnc3[nH]ccc23)CC1	55.8%
CCCCCCCCCC(=O)N[C@@H](Cc1c[nH]c2ccccc12)C(=O)N[C@H](CC(N)=O)C(=O)N[C@@H](CC(=O)O)C(=O)N[C@@H]1C(=O)NCC(=O)N[C@@H](CCCN)C(=O)N[C@@H](CC(=O)O)C(=O)N[C@H](C)C(=O)N[C@@H](CC(=O)O)C(=O)NCC(=O)N[C@H](CO)C(=O)N[C@@H]([C@H](C)CC(=O)O)C(=O)N[C@@H](CC(=O)c2ccccc2N)C(=O)O[C@@H]1C	103%
CNCCC(Oc1ccc(C(F)(F)F)cc1)c1ccccc1 (configuration not stated) [Fluoxetine HCl]	74.1%

Record request: cell viability value, item `Cn1cnc([N+](=O)[O-])c1Sc1ncnc2[nH]cnc12`
92%

Record request: cell viability value, item `Cc1cc(Nc2cc(CN3CCOCC3)c3nc(C)c(Cc4ccc(Cl)cc4F)n3n2)n[nH]1`
53%

Record request: cell viability value, item `Cn1c(-c2ccccc2C(F)(F)F)nnc1C12CCC(c3noc(C4CC(F)(F)C4)n3)(CC1)CC2`
94.8%

Record request: cell viability value, item `CS(=O)(=O)Nc1ccc([N+](=O)[O-])cc1OC1CCCCC1`
101%

Record request: cell viability value, item `CCCCC1=NC2(CCCC2)C(=O)N1Cc1ccc(-c2ccccc2-c2nnn[nH]2)cc1`
94.1%

Record request: cell viability value, item Cc1ccc(O)c([C@H](CCN(C(C)C)C(C)C)c2ccccc2)c1 [Tolterodine tartrate (Detrol LA)]
84%

Record request: cell viability value, item `OCCn1cc(-c2ccc3c(c2)CC/C3=N\O)c(-c2ccncc2)n1`
80.8%

---

Measured cell viability by item
- System: K562
- Procedure details: cell viability relative to vehicle control; higher = less cytotoxic
- Study conditions: 10 µM; SRSF2 genotype: SRSF2 wt/wt
Counter-ions that a name gives are not always drawn.
State just the number; it will be interpreted in %.

Molecule	System tested	Number
NC(=O)CCCSc1nc(N)nc(-c2c(Cl)cc3c4c(cccc24)COC3)n1	K562	22.6
Cc1cc(Nc2nc(N[C@@H](C)c3ccc(F)cc3)c(C#N)cc2F)n[nH]1	K562	75.5
Cc1c(C(=O)C=Cc2ccccc2)[n+](=O)c2ccccc2n1[O-] [Quinocetone]	K562	74.1
COc1cc(N2CCN(C)CC2)ccc1Nc1nccc(-c2cn(C)c3cnccc23)n1	K562	79.2
O=C(O)c1ccc(O)c(O)c1 [Protocatechuic acid]	K562	93.3
CC[N+](CC)(CC)CCOc1cccc(OCC[N+](CC)(CC)CC)c1OCC[N+](CC)(CC)CC [Gallamine triethiodide (Flaxedil)]	K562	91.8
CCCCNc1ncc(C(=O)NCc2ccc(-n3ccnc3)cc2)c(NC2CCC(O)CC2)n1 (centres undefined)	K562	72.8
CCC1(c2c[nH]cn2)Cc2ccccc2C1 [Atipamezole hydrochloride]	K562	104

Next:
Record request: cell viability value, item Nc1nc2ccc(OC(F)(F)F)cc2s1 [Riluzole (Rilutek)]
88.4

Taken from the supplement of paper PMC10981050.
